# assay-details: soluble on expression in E. coli; label from the status in PepcDB or PDB records
measured-metric: soluble on expression in E. coli

INSERT INTO assay_data (sequence_string, recorded_value) VALUES
  ('MAHHHHHHMSKSDLFNDAQVPMRATVLRFGDDVEGASYPEAALTIDDAAVPAEAKVEVYHDGDNSGSAHESVPHHAQDLRHDFTSGILNCHESCAVCLDACLCMYCTASAHHNFLMNDTEGLYLPVCWGLFCVDVGLSAVSSYLPSSLHFHTYFMRSAIRRRYNLHSAGAPVNSNTHGSSSSGCDCTTESMLDLLTVCFCLPCAIAQHQREIMHQGDWCGGVFSNRYSLQTPATVHTI', 'not soluble'),
  ('MSRATYIIGALAGSAVVAYVCDKVISDDKLFGGTTPGTITNKEWGAATEERLQAWPRVAGPPVVMNPISRQNFIVKSRPE', 'not soluble');

----------
# assay-details: soluble on expression in E. coli; label from the status in PepcDB or PDB records
measured-metric: soluble on expression in E. coli

INSERT INTO results (sequence_string, measured_metric, recorded_value) VALUES
  ('MVNNSKTILITGCSHGGIGYATAVHLKNLGHRVFASARQQKDVEALSQEGFETYLIDVTNYEYIDNALADILNKTGGSLDVIFNNAGYGQAGALEDIDTKFLKQQFETNVFGLHNLTYKALKIMRKQGYGKIIQHSSVLGLVAMKYRGAYNASKYAIEGLTDTMRLELRDSNIFITSLNTGPITSKFRENSIKTITNVNYDSSVHKQQYEKILARQHKKVPFNEPAISVAKVVEKIINCDKPKPRYYITKATWIMASLKRILPTNILDNFLNRY', 'soluble on expression in E. coli', 'not soluble'),
  ('MKSNPAIQAAIDLTAGAAGGTACVLTGQPFDTMKVKMQTFPDLYRGLTDCCLKTYSQVGFRGFYKGTSPALIANIAENSVLFMCYGFCQQVVRKVAGLDKQAKLSDLQNAAAGSFASAFAALVLCPTELVKCRLQTMYEMETSGKIAKSQNTVWSVIKSILRKDGPLGFYHGLSSTLLREVPGYFFFFGGYELSRSFFASGRSKDELGPVPLMLSGGVGGICLWLAVYPVDCIKSRIQVLSMSGKQAGFIRTFLNVVKNEGITALYSGLKPTMIRAFPANGALFLAYEYSRKLMMNQLEAY', 'soluble on expression in E. coli', 'soluble'),
  ('MQDSVLGVMQPDGFQDIVAARFREARAGGLISTVFQIEIDDHTSLVERHGQRAAEVISTTSADRIAAVLRDRDAVTHLDTFKYAVCLEPVRQMDLELCIQLAGRIQAALEEPIALDATAVCITSSVGFCQQTKVLSRSGEAWLAAAGHALREAHLNGPGAIRAYSLEHHHHHH', 'soluble on expression in E. coli', 'not soluble'),
  ('VMGKRYVATPQQSQWEMVVNTPLECQLVHPIPSFGDAVFSSRANKKINLDFELKMRRPMGETRNVSLISMPPPWRPGEHADRITNLKFFKQFDGYVGGQTAWGILSELEKGRYPTFSYQDWQSRDQRIEVALSSVLFQNKYNAFSDCISNLLKYSFEDIAFTILHYERQGDQLTKASKKRLSQIADYIRHNQDIDLVLVATYTDSTDGKSASQSLSERRAESLRDYFQSLGLPEDRIQVQGYGKRRPIADNGSPIGKDKNRRVVISLGRTQVHHHHHH', 'soluble on expression in E. coli', 'soluble'),
  ('MIYEIGGHEVSIVRATPGLAKSYYDLLMELYEDPNSYILVNYSKDPPQLESIVERSKNWNVHPHYMHFALYKDKVVGFAGSLLGPDYGPEVQPHIAEIYYGVSKGWRKTGLIYALLYTALSDINAKIVKATAYVENLPSINVLLKIGLRIIAVLEENDFHYMSGKMHDDYLFRGFRSDCLNRLPGLLEKHGISVIR', 'soluble on expression in E. coli', 'not soluble'),
  ('MSLSNDIELTIDIELQSYLTSLFEGNAGAAIIMNVNDGSILAAGSFPEYDLNPFVTGISFKDWDELSNSLDHPFTNKLINGYYPPGSVVKMGVGLSFLNSKNISPSTHYVCNGSIELGGRFFRCWNRSGHGPVDLKHAIKYSCDVYFYNGSLQVGIDQISETLSRIGFGVKTGVDLPSEFVGTLPSKEWKMQRYRQSWFQGDTLNTAIGQGNFLATPMQIARYTAQIAKSGEVIPHFLKSIENNNTTIENQMDENKKEIFTLFEKSQLPYIRDAMYAVANEQGGTSYRYLHNLDVKVAAKTGTAQVVGFSQTDKNRVDEKQFEYYTRSHAWLTSYAPYSKPKYVVTVLLEHGGRNITSGATVAKIYQKMIELGYFKEGHHHHHH', 'soluble on expression in E. coli', 'not soluble'),
  ('MSLSFYERYLEYKNFDFENFFDQVTDRDIINIINKDRRLSELEFLMLLSKKAVKYLEPLAQKANRITVQNFGKVIFLYTPMYLANYCVNQCIYCGFNITNNIKRRKLTLDEVEKEAYAISSTGLRHILILTGESRKESPVQYIKDCVKILQKYFRSISIEVYPLEENEYAELIEAGVDGLTIYQEVYDEEKYKALHLKGPKRNYLYRLDAPERACKASMRNVNIGALLGLHDWRTEAFYTGLHADYLQNKYPDVEIGLSLPRIRPHPCGSFVPDCKVEDRDLVQIMIAYRLFMPRAGIAISTRERESLRNNLIGLGVTKMSAASSTEVGGHTLGDKSDGQFDVNDRRGVEEMRQMIYSKGYQPVFKDWQAEGHHHHHH', 'soluble on expression in E. coli', 'soluble'),
  ('DCCSCQEKWVGYRCNCYFISSEQKTWNESRHLCASQKSSLLQLQNTDELDFMSSSQQFYWIGLSYSEEHTAWLWENGSALSQYLFPSFETFNTKNCIAYNPNGNALDESCEDKNRYICKQQLI', 'soluble on expression in E. coli', 'soluble'),
  ('GDSTILKVLQSNIQHVQLYENPVLQEKALTCIPVSELKRKAQEKLFRARKLDKGTNVSDEDFLLLELLHWFKEEFFRWVNNIVCSKCGGETRSRDEALLPNDDELKWGAKNVENHYCDACQLSNRFPRYNNPEKLLETRCGRCGEWANCFTLCCRALGFEARYVWDYTDHVWTEVYSPSQQRWLHCDACEDVCDKPLLYEIGWGKKLSYIIAFSKDEVVDVTWRYSCKHDEVMSRRTKVKEELLRETINGLNKQRQLSLSESRRKELLQRIIVELVEFISPKTPRPGLEHHHHHH', 'soluble on expression in E. coli', 'soluble'),
  ('WLLAELTYRCPLQCPYCSNPLDFARQDKELTTEQWIEVFRQARAMGSVQLGFSGGEPLTRKDLPELIRAARDLGFYTNLITSGIGLTESKLDAFSEAGLDHIQISFQASDEVLNAALAGNKKAFQQKLTMAKAVKARDYPMVLNFVLHRHNIDQLDKIIELCIELEADDVELATCQFYGWAFLNREGLLPTREQIARAEQVVADYRQKMAASGNLTNLLFVTPDYYEERPKGCMGGWGSIFLSVTPEGTALPCH', 'soluble on expression in E. coli', 'not soluble'),
  ('MSKTITWTAALLGSMALAGCSGPKTLYQWEGYQAQVHEYFKGESKEAQAQALEADLEKIRAKNGAVPPGYHAQLGLLYSSIGKDDQMVREFETEKALFPESATYMDFLLNNARGGAR', 'soluble on expression in E. coli', 'not soluble'),
  ('MNLSLHYNLDNRNAMKPHTLVKRSSSQVTDQAVEVIHERIQQGFYPVGSALPSQRELSAELGISRASLREALTRLAALGLLNIMAGKGAYVTAIESQPVEQWNIQFKISLKDFYQLRYILEGFSALLACEYISENDLVQLNTHFEQLESAIQQHNWQEAAENDFAFHRHIIDLSHNQSIIQSLKKQTEWMKQSQILPFVQPNLAYKTIQEHEQILQALIKRDGLMAEKAMRQHIIGAAQRAGVYFSSHS', 'soluble on expression in E. coli', 'not soluble');
